I'd appreciate it if you could supply pKi values for the items below.
assay_target: 5-hydroxytryptamine receptor 7 (Homo sapiens, UniProt P34969)
Sequence (P34969 whole entry): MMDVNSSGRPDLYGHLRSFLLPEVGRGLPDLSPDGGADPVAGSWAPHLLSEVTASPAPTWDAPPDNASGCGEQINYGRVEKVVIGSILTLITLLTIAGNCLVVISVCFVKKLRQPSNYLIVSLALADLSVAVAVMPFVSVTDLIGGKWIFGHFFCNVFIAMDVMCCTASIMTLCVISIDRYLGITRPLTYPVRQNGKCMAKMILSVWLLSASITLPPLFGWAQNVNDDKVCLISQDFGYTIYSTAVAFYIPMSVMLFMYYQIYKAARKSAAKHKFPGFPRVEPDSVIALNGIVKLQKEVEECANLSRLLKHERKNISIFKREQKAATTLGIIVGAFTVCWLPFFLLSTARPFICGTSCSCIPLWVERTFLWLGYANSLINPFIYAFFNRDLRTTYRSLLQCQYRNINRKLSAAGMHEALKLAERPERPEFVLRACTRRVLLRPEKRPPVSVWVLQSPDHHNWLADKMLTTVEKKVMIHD
assay_procedure: Binding affinity to 5-HT7A receptor (unknown origin) by radioligand binding assay
pKi: −log10 of the molar value.

molecule="C[C@@H]1SC(c2ccccc2O)=N[C@@H]1CO [PULICATIN A]" value_observed="< 5.00"

Dear reader, for each entry below, please note its pKi.
1. C[C@@H]1SC(c2ccccc2O)=N[C@H]1[C@H]1SC[C@](C)(C(=O)O)N1C [WATASEMYCINS B]
2. OC[C@@H]1CSC(c2ccccc2O)=N1 [AERUGINE]
3. O=Cc1csc(-c2ccccc2O)n1
4. NC(=O)C1CSC(c2ccccc2O)=N1 (racemic) [PULICATINS G]
5. NC(=O)c1csc(-c2ccccc2O)n1 [PULICATINS F]
6. C[C@@H]1SC(c2ccccc2O)=N[C@H]1[C@@H]1SC[C@](C)(C(=O)O)N1C [WATASEMYCINS A]

## Output
1: < 5.00; 2: < 5.00; 3: < 5.00; 4: < 5.00; 5: < 5.00; 6: < 5.00

====

Exercise: state measured Ki for each of the compounds provided.
assay_target: UniProtKB P47898
Sequence (P47898 whole entry): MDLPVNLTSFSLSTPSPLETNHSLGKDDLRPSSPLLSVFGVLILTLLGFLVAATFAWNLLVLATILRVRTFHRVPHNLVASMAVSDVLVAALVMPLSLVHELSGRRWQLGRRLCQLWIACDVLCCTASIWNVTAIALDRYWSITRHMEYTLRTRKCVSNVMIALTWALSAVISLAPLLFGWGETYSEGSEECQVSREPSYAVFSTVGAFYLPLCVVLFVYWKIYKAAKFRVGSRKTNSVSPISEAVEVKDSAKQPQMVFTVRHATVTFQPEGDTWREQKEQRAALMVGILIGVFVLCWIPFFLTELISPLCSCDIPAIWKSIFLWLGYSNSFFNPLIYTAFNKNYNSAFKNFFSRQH
assay_procedure: Binding affinity to 5-HT5A receptor (unknown origin) by radioligand binding assay

These recorded examples may help you get a feel for the data.
compound=NC(=O)c1csc(-c2ccccc2O)n1 measurement_label=Ki value_observed="> 10 µM"
compound="NC(=O)C1CSC(c2ccccc2O)=N1 (racemic)" measurement_label=Ki value_observed="> 10 µM"

# batch size: 5; output Ki per entry
1. C[C@@H]1SC(c2ccccc2O)=N[C@@H]1CO
2. O=Cc1csc(-c2ccccc2O)n1
3. C[C@@H]1SC(c2ccccc2O)=N[C@H]1[C@@H]1SC[C@](C)(C(=O)O)N1C
4. C[C@@H]1SC(c2ccccc2O)=N[C@H]1[C@H]1SC[C@](C)(C(=O)O)N1C
5. OC[C@@H]1CSC(c2ccccc2O)=N1

## Output
1. > 10 µM
2. > 10 µM
3. > 10 µM
4. > 10 µM
5. > 10 µM

====

assay_target: UniProt:P47898
assay_procedure: Displacement of [3H]-LSD from human 5-HT5A receptor expressed in Flp-In CHO cells after 90 mins by microbeta scintillation counting analysis
Format: cell-based
measurement_label: Ki

compound="C[C@@H]1SC(c2ccccc2)=N[C@H]1Cc1c[nH]cn1 (relative stereo)" value_observed="> 10 µM"

Below are 3 compounds. Give each one its Ki.
1. Oc1ccccc1C1=NC(Cc2c[nH]cn2)CS1 (racemic)
2. C[C@@H]1SC(c2cccs2)=N[C@H]1CO (relative stereo)
3. C[C@@H]1SC(c2ccccc2)=N[C@@H]1Cc1c[nH]cn1 (relative stereo)

## Output
1: > 10 µM; 2: > 10 µM; 3: 6.8 µM

Provide Ki values for the following items, in order.
1. C[C@@H]1SC(c2c[nH]c3ccccc23)=N[C@H]1CO (relative stereo)
2. C[C@@H]1SC(c2ccccc2O)=N[C@H]1Cc1c[nH]cn1 (racemic)
3. Oc1ccccc1C1=NC(Cc2c[nH]cn2)C(c2ccccc2)S1 (racemic)

## Output
1: > 10 µM; 2: > 10 µM; 3: 4.7 µM

I need Ki for every entry listed below, if you could help.
1. C[C@@H]1SC(c2ccccc2)=N[C@H]1CO (relative stereo)
2. CCCCCCCCOc1ccc(C2=N[C@@H](CO)[C@H](C)S2)cc1 (relative stereo)
3. Oc1ccccc1C1=N[C@@H]2CCC[C@@H]2S1 (racemic)

## Output
1: > 10 µM; 2: > 10 µM; 3: > 10 µM
